Values were extracted from patent US10975068B2.

# reported IC50; entries follow
Molecular target: UniProt:P51449
Sequence (P51449 other isoform, or with tags, fused parts or gaps): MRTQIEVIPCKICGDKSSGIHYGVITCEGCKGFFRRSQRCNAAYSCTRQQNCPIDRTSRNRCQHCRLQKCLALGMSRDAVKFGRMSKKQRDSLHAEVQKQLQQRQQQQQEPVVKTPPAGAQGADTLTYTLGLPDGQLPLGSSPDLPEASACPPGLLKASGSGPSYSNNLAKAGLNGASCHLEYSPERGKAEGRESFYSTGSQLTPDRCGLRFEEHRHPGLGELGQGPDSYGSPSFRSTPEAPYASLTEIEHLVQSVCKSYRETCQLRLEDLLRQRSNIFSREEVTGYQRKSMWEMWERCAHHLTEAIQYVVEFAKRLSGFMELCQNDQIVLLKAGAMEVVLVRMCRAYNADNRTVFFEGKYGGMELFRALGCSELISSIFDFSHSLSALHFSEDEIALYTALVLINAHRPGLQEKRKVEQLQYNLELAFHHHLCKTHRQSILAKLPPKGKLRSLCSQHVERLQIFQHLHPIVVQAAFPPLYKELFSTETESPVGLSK
Assay: RORγt (full-length human) reporter assay, Conditions B or C
Assay type: cell-based
Conditions: Conditions B or C; read-out: RORγt (FL) Reporter Assay B or C, IC50
Answer in nM, number only, no unit symbol.

CC[C@H](Nc1cc(C(F)F)c(-c2sc(C(=O)N[C@H](C)C(C)(C)O)nc2C(=O)N2CCCC[C@@H]2C)cn1)C(F)(F)F; 24
CCC(C)(C)Nc1cc(C(F)F)c(-c2sc(C(=O)NCC(C)(C)O)nc2C(=O)N2CC(F)(F)C[C@@H]2C)cn1; 12
CC[C@H](Nc1cc(C(F)F)c(-c2sc(C(=O)N[C@H]3COC[C@@H]3O)nc2C(=O)N2CCC[C@@H]2C)cn1)C(F)(F)F; 19
C[C@H]1CCCN1C(=O)c1nc(C(=O)NCC(C)(C)O)sc1-c1cnc(N[C@H]2CCCCC2(F)F)cc1C(F)(F)F (relative stereo); 16

Form: compound = C[C@H]1CC(F)(F)CN1C(=O)c1nc(C(=O)NCC(C)(C)O)sc1-c1cnc(NC2(C(F)(F)F)CCC2)cc1C(F)F ; IC50 = 21

Summary for this compound, C[C@H]1CCCN1C(=O)c1nc(C(=O)N[C@H]2C[C@H](S(C)(=O)=O)C2)sc1-c1cnc(NC2CCCC2)cc1C(F)F : IC50 is 89

Per the records, this compound ( CC[C@H](Nc1cc(C(F)F)c(-c2sc(C(=O)N[C@H](C)C(C)(C)O)nc2C(=O)N2C3CCC2CC3)cn1)C(F)(F)F ) has IC50 equal to 15

Briefly, IC50 measured for CC[C@H](Nc1cc(C(F)F)c(-c2sc(C(=O)N[C@@H](C)C(C)(C)O)nc2C(=O)N2CCCC[C@@H]2C)cn1)C(F)(F)F : 23

The recorded IC50 for C[C@H]1CCCN1C(=O)c1nc(C(=O)NC[C@H](O)C(C)(C)O)sc1-c1cnc(NC(C)(C)C)cc1C(F)(F)F (single isomer, unassigned) is 8.3

What the record says about C[C@H]1CCCN1C(=O)c1nc(C(=O)N[C@H]2C[C@H](O)C2)sc1-c1cnc(NC2CCCC2)cc1C(F)F : IC50 is 32

For reference, reported IC50 for C[C@H](Nc1cc(C(F)F)c(-c2sc(C(=O)N[C@@H]3COC[C@H]3O)nc2C(=O)N2CCC[C@@H]2C)cn1)C(F)(F)F stands at 100

Looking up C[C@H](Nc1cc(C(F)(F)F)c(-c2sc(C(=O)NCC3(O)CCC3)nc2C(=O)N2CCC[C@@H]2C)cn1)C1CC1 , I found its IC50 recorded as 7.6

IC50 reported for this compound C[C@H]1CCCN1C(=O)c1nc(C(=O)NCC(C)(C)O)sc1-c1cnc(NC2(C)CCC2)cc1C(F)F : 55

Lookup result for CC(C)(O)CNC(=O)c1nc(C(=O)N2C3CCC2CC3)c(-c2cnc(NCC3(C(F)(F)F)CCC3)cc2C(F)(F)F)s1 ; measured IC50: 17

What the record says about C[C@H]1CCCN1C(=O)c1nc(C(=O)NCC(C)(C)O)sc1-c1cnc(NC(C)(C)C2CC2)cc1C(F)(F)F : IC50 is 3.6

CC[C@H](Nc1cc(C(F)F)c(-c2sc(C(=O)N[C@@H](C)[C@H](C)O)nc2C(=O)N2CCC[C@@H]2C)cn1)C(F)(F)F (relative stereo) yielded IC50 of 19

The value of IC50 measured for the compound CC[C@H](Nc1cc(C(F)(F)F)c(-c2sc(C(=O)N[C@@H]3COC[C@H]3O)nc2C(=O)N2CCC[C@@H]2C)cn1)C(F)(F)F turned out to be 24

Sample C[C@H](Nc1cc(C(F)F)c(-c2sc(C(=O)NCC(C)(C)O)nc2C(=O)N2C3CCC2CC3)cn1)C1CC1 ; IC50 observed: 31

# IC50 (compound: C[C@H]1CCCCN1C(=O)c1nc(C(=O)NCC(C)(C)O)sc1-c1cnc(N[C@H]2CCCCC2(F)F)cc1C(F)(F)F (relative stereo) ) is 2.2
